experiment: folding enthalpy; higher = less favourable; fluorescence melt of hairpins on a sequencing array, two-state fit; settings: sodium 0.088 M
measured metric: folding enthalpy (kcal/mol)
API: value field is a number in kcal/mol; no unit string.

See these solved cases before continuing.
1) GATCTAGGAAACTAGATC (((((((....))))))) :: -43.1
2) GTCCATCCGAAAGGAGAC (((..(((....)))))) :: -14.8

I'd like to know its folding enthalpy. The sequence in question is GCACCACGAAAGTGATGC (((.(((....))).)))
-36.5

Can you handle GTTGAGGGAAACCCCAAC ((((.((....)).)))) next?
-26.1

// query: GCATACGAAAGTACGTGC ((((((....)))..)))
-18.1

Moving on to GTGTGCGAAAGCATCAC ((((((....))).)))
-21.9

The measurements presented in this section are drawn from the array DNA melting data of Ke et al. (doi:10.1101/2024.01.08.574731).
